- TEST_DESCRIPTION: Caco-2 membrane permeability, improved method as used in the following Examples (96-well, 20 to 24 h preincubation)
- Type: in vitro ADME
- RECORDED_CONDITIONS: human, Caco-2, Caco-2 (cm/sec)
Positions of bridges follow the written chain, without caps; N, C: chain ends. Non-standard residues stand in square brackets, D forms with d. Residues, ends and D or L forms follow the SMILES beside them. *: point of attachment. NMeF = CN[C@@H](Cc1ccccc1)C(=O)O; 3Pal = N[C@@H](Cc1cccnc1)C(=O)O; NMeL = CN[C@@H](CC(C)C)C(=O)O; NMeV = CN[C@H](C(=O)O)C(C)C; NMeA = CN[C@@H](C)C(=O)O; Piperidide = C1CCN(*)CC1; Sar = CNCC(=O)O; tBu = CC(C)(C)*
ENDPOINT: Papp A→B at 180 min (×10⁻⁶ cm/s)
Numbers only, in ×10⁻⁶ cm/s.

// known answers, use as guide
CC[C@H](C)[C@@H]1NC(=O)[C@H](Cc2ccccc2)N(C)C(=O)[C@H]([C@@H](C)O)NC(=O)[C@@H](C)NC(=O)C[C@@H](C(=O)N(C)[C@@H](Cc2ccccc2)C(=O)N(C)[C@@H](Cc2ccccc2)C(=O)N[C@@H](C)C(=O)N2CCCCC2)NC(=O)[C@H](CC(C)C)N(C)C(=O)[C@H](CC(C)C)N(C)C(=O)[C@H](Cc2ccccc2)N(C)C(=O)[C@H](CC(C)C)N(C)C(=O)[C@H](C)N(C)C1=O [pd242] ([dA]T[NMeF]I[NMeA][NMeL][NMeF][NMeL][NMeL]D[NMeF][NMeF]A-Piperidide; lactam N-10) :: 0.058
CC[C@H](C)[C@@H]1NC(=O)[C@H](CC(C)C)N(C)C(=O)[C@@H](C)NC(=O)C[C@@H](C(=O)N2CCCCC2)NC(=O)[C@H](C(C)C)N(C)C(=O)[C@H](Cc2ccccc2)N(C)C(=O)[C@H](COC(C)(C)C)NC(=O)[C@H](CC(C)C)N(C)C(=O)CN(C)C(=O)[C@H](Cc2ccc(O)cc2)NC(=O)[C@H](C)N(C)C1=O [pd117] ([dA][NMeL]I[NMeA]Y[Sar][NMeL]S(tBu)[NMeF][NMeV]D-Piperidide; lactam N-11) :: 0.56

Required: Papp A→B at 180 min, one value per compound below.
1. CC(C)C[C@@H]1NC(=O)[C@H](Cc2ccccc2)N(C)C(=O)[C@H](C)N(C)C(=O)C[C@@H](C(=O)N2CCCCC2)NC(=O)[C@H](C(C)C)N(C)C(=O)[C@H](Cc2ccccc2)N(C)C(=O)[C@H](COC(C)(C)C)NC(=O)[C@H](CC(C)C)N(C)C(=O)CN(C)C(=O)[C@H](Cc2cccnc2)NC(=O)[C@H](CC(C)C)N(C)C1=O [pd197] ([NMeA][NMeF]L[NMeL][3Pal][Sar][NMeL]S(tBu)[NMeF][NMeV]D-Piperidide; lactam N-11)
2. CC[C@H](C)[C@@H]1NC(=O)[C@H](Cc2ccccc2)N(C)C(=O)[C@@H](C)NC(=O)C[C@@H](C(=O)N2CCCCC2)NC(=O)[C@H](CC(C)C)N(C)C(=O)[C@H](C)N(C)C(=O)[C@H](COC(C)(C)C)NC(=O)[C@H](C)N(C)C(=O)CN(C)C(=O)[C@H](Cc2ccc(O)cc2)NC(=O)[C@H](CC(C)C)N(C)C1=O [pd112] ([dA][NMeF]I[NMeL]Y[Sar][NMeA]S(tBu)[NMeA][NMeL]D-Piperidide; lactam N-11)
3. CC(C)C[C@@H]1NC(=O)[C@H](Cc2ccccc2)N(C)C(=O)[C@H](C(C)C)N(C)C(=O)C[C@@H](C(=O)N2CCCCC2)NC(=O)[C@H]([C@@H](C)O)NC(=O)[C@H](Cc2ccccc2)N(C)C(=O)[C@H](Cc2ccccc2)NC(=O)[C@H](Cc2ccccc2)N(C)C(=O)CN(C)C(=O)[C@H](C)N(C)C(=O)[C@H](CC(C)C)N(C)C1=O [pd229] ([NMeV][NMeF]L[NMeL][NMeA][Sar][NMeF]F[NMeF]TD-Piperidide; lactam N-11)

**A:**
[3, 0.11, 0.41]
